Reported % viability of CHO cells values for the following compounds.
Test system: CHO
TEST DESCRIPTION: % viability of CHO cells (MTT); higher = less toxic
EXPERIMENTAL SETUP: 20 µM; 48 h
Expressed in %, but write only the number.

COMPOUND	% viability of CHO cells [%]
O=[N+]([O-])c1cn2c(n1)OC[C@@H](OCc1ccc(OC(F)(F)F)cc1)C2	84.4
C[C@H](NC(CC(=O)c1ccccc1C(F)(F)F)C(=O)O)c1ccccc1 (stereo partly drawn)	58.9
CC1(C)Cc2c(C#N)c(SCCc3ccccc3)nc(N3CCOCC3)c2CO1	112

Name the reported % viability of CHO cells value associated with the compound C=CCN(C(=O)OCc1ccc([N+](=O)[O-])cc1)C1CCN(CC[C@](C)(CN(C)S(=O)(=O)c2ccccc2)c2ccccc2)CC1 122

Next: O=C(O)c1ccc(-c2ccc(O[C@H]3O[C@H](CO)[C@@H](O)[C@H](O)[C@@H]3O)cc2)cc1 102

Then this compound: CCN(CC)CCn1c(=N)n(CC(O)COc2ccc(Cl)cc2Cl)c2ccccc21 (stereo not drawn) 0.284

Okay, and CS(=O)(=O)c1ccc(Oc2ccc(Cl)cc2)cc1 ? 121

Next up: CNc1nc(=O)[nH]cc1F 98.5

Same again, this time with Cc1cc(O)c2c(c1)C(=O)c1c(I)c(O)c(I)c(O)c1C2=O 64.1

And CCOCc1nc2c(N)nc3ccccc3c2n1CC(C)(C)O ? 69.2

Next compound up: O=S(=O)(NCB(O)O)c1ccc(-c2nnn[nH]2)cc1C(F)(F)F 66.1

CC(C)N(c1cc(-c2ccccc2)sc1C(=O)O)C(=O)[C@H]1CC[C@H](C)CC1 ? 103

Another compound to check: CC(C)C(=O)N[C@H]1[C@H]([C@H](O)[C@H](O)CO)OC(C(=O)O)=C[C@@H]1N=[N+]=[N-] 113

###

Tested on: Plasmodium falciparum NF54 asexual blood stage
TEST DESCRIPTION: % inhibition of asexual blood stage proliferation (pLDH); higher = more inhibition
EXPERIMENTAL SETUP: 20 µM; 72 h
RECORDED METRIC: % inhibition of asexual blood stage proliferation (%)
Please state the figure in %; there is no need to write the unit.

> print(dat)
                                     smiles  endpoint.value
1  NC(=O)C(c1ccccc1)(c1ccccc1)[C@H]1CCCN(CCc2ccc3c(c2)CCO3)C1            68.4
2  Cc1c(CN(C)C(=O)/C=C/c2cnc3c(c2)C(C)(C)C(=O)N3)oc2ccccc12            78.8
3              Oc1ccc2[nH]c(-c3ccccc3)nc2c1            62.2
4  NC(=O)[C@@H]1CC[C@@H]2CN1C(=O)N2OS(=O)(=O)O            16.5
5          O=c1oc2ccc(Br)cc2cc1CSc1ncc[nH]1              79
6  Cc1[nH]c2ccccc2c1CC(=O)N[C@@H](Cc1ccccc1)C(=O)N(C)c1ccccc1            76.5
7  CC(C)CCN1C(=O)C(C2=NS(=O)(=O)c3cc(NS(C)(=O)=O)ccc3N2)=C(O)[C@@H]2[C@H]3CC[C@H](C3)[C@@H]21            56.6
8  O=c1nc(N2CCN(CC3CCCCC3)CC2)sc2c([N+](=O)[O-])cc(C(F)(F)F)cc12             107

Bench note: what % inhibition of asexual blood stage proliferation did Cn1c2ccccc2c(=O)c2c(O)cccc21 show? 11

###

Tested on: Plasmodium falciparum NF54 stage IV/V gametocytes
TEST DESCRIPTION: % inhibition of gametocyte viability (PrestoBlue); higher = more inhibition
EXPERIMENTAL SETUP: 5 µM; 48 h
The label is class 1 for % inhibition of gametocyte viability below 10% and class 0 for % inhibition of gametocyte viability equal to or exceeding 10%.

> print(dat)
                                    compound                       experimental.system  qualitative.label
 1  COc1ccc(OCc2ccc(COc3c(Cl)cccc3Cl)cc2)c(Cl)c1  Plasmodium falciparum NF54 stage IV/V gametocytes            class 1
 2  O=C(/C(=C/c1ccc(Cl)cc1Cl)n1ccnc1)c1ccc(Cl)cc1  Plasmodium falciparum NF54 stage IV/V gametocytes            class 0
 3  CCOC(=O)Nc1cc(NC(C)CC(C)CN(CC)CC)c2nc(-c3ccccc3)c(-c3ccccc3)nc2n1 (stereo unspecified)  Plasmodium falciparum NF54 stage IV/V gametocytes            class 0
 4  O=C(CCc1ccc2c(c1)OCO2)NCc1ccc(-c2ccccc2F)cc1  Plasmodium falciparum NF54 stage IV/V gametocytes            class 1
 5         COc1cc(Cc2cc(N)nc(N)n2)cc(OC)c1OC  Plasmodium falciparum NF54 stage IV/V gametocytes            class 1
 6        CCCCc1ccc(S(=O)(=O)Nc2cc(C)on2)cc1  Plasmodium falciparum NF54 stage IV/V gametocytes            class 0
 7            N=C(N)c1ccc(COc2ccc(Cl)cc2)cc1  Plasmodium falciparum NF54 stage IV/V gametocytes            class 0
 8  CN1CCN(Cc2ccc(-c3cnc4[nH]cc(-c5ccc6[nH]ccc6c5)c4c3)cc2)CC1  Plasmodium falciparum NF54 stage IV/V gametocytes            class 1
 9       O=C(Nc1nnc(-c2ccccc2)o1)c1ccc(F)cc1  Plasmodium falciparum NF54 stage IV/V gametocytes            class 1
10  Cc1cccc(C)c1C(=O)Nc1nc(-c2ccccn2)cc2ccccc12  Plasmodium falciparum NF54 stage IV/V gametocytes            class 0

Below 10% on % inhibition of gametocyte viability? Entry CN(C)[C@@H]1C(=O)C(C(N)=O)=C(O)[C@@]2(O)C(=O)C3=C(O)c4c(O)c(NC(=O)CN5CCCC5)cc(F)c4C[C@H]3C[C@@H]12 class 1

Item: CCc1cc(Nc2cc(=O)n(CCN3CCN(C(=O)c4ccccc4)CC3)c(=O)[nH]2)ccc1C class 0

And the next one, O=c1nc(N2CCN(CC3CCCCC3)CC2)sc2c([N+](=O)[O-])cc(C(F)(F)F)cc12 ? class 1

What would you report for CC[N+]1(C/C2=C/CCCCCC2)CCC(NC(=O)C2c3cc(Cl)ccc3Oc3ccc(Cl)cc32)CC1 (stereo unspecified) ? class 0

Now the compound CCCCCCC1c2ccc(O)cc2Oc2cc(O)ccc21 class 1

Same lookup for Nc1nc(O)c(Br)c(-c2ccccc2)n1 , please. class 0

Field entry: CC(C)Nc1nc2cc(Cl)c(Cl)cc2n1[C@H]1O[C@@H](CO)[C@H](O)[C@@H]1O class 0

###

Test system: CHO
TEST DESCRIPTION: % viability of CHO cells (MTT); higher = less toxic
EXPERIMENTAL SETUP: 2 µM; 48 h
Could you please mark fulfilled for values of % viability of CHO cells below 90% and not fulfilled for values at or above it?

Answered examples (3):
> print(dat)
                                   molecule  experimental.system  qualitative.label
1                           NNC(=O)c1ccncc1                  CHO      not fulfilled
2  Cc1[nH]c2ccccc2c1CC(=O)N[C@@H](Cc1ccccc1)C(=O)N(C)c1ccccc1                  CHO          fulfilled
3   COc1cc(NS(=O)(=O)c2ccc(C)cc2)c2ncccc2c1                  CHO      not fulfilled

Please indicate whether the reported % viability of CHO cells of CCC[C@H](NC(=O)[C@@H]1[C@H]2CCC[C@H]2CN1C(=O)[C@@H](NC(=O)[C@@H](NC(=O)c1cnccn1)C1CCCCC1)C(C)(C)C)C(=O)C(=O)NC1CC1 is strictly below 90%. not fulfilled

Same for CCc1cc(O)c(Oc2cccnc2N)cc1F fulfilled

Entry C[C@H](NC(=O)C(=O)Nc1ccccc1C(C)(C)C)C(=O)N[C@@H](CC(=O)O)C(=O)COc1c(F)c(F)cc(F)c1F please not fulfilled

Try the molecule O=C(NCc1ccc2c3c(cccc13)C(=O)N2)c1cccs1 not fulfilled

Moving on to Oc1cccc(C(Nc2nccs2)c2ccc3cccnc3c2O)c1 (stereo unspecified) fulfilled

Also CCCCCCC1c2ccc(O)cc2Oc2cc(O)ccc21 , if possible. fulfilled

Now the same for O=C(Nc1ccc(-c2ccccc2)cc1)C1=C(O)C(Cc2ccccc2)OC1=O (stereo unspecified) not fulfilled

Moving on to COc1ccc(NC(=O)c2cc3ccccn3n2)cc1 not fulfilled

Next up: O=C(Nc1ccc(N2CCN(C(=O)c3ccccc3)CC2)cc1)c1ccc2c(c1)OCO2 not fulfilled

Please give the result for Nc1cccc(-c2nc(N)nc(NC3Cc4ccccc4C3)n2)c1 too. not fulfilled

What would you report for OC1O[C@H](CSc2ccc(F)cc2)[C@@H](O)[C@H]1O (stereo partly specified) ? fulfilled

What do we get for CS(=O)(=O)c1ccc(Oc2ccc(Cl)cc2)cc1 ? not fulfilled

Continue with NCCCc1ccccc1C(=O)Nc1ncc([N+](=O)O)s1 not fulfilled

Now consider O=C(Nc1ncc(Cc2cccc3ccccc23)s1)C1CCCCC1 . fulfilled

// query: CCc1cc(Cc2cnc(N)nc2N)cc2c1N(C)CCC2C (stereo unspecified) not fulfilled

N#Cc1c(F)c(Cl)c(NCc2ccccc2)c(C#N)c1F ? not fulfilled
